- system: Human CB2R (Cannabanoid receptor 2) (Homo sapiens (Human), UniProt P34972)
- Sequence (P34972 whole entry): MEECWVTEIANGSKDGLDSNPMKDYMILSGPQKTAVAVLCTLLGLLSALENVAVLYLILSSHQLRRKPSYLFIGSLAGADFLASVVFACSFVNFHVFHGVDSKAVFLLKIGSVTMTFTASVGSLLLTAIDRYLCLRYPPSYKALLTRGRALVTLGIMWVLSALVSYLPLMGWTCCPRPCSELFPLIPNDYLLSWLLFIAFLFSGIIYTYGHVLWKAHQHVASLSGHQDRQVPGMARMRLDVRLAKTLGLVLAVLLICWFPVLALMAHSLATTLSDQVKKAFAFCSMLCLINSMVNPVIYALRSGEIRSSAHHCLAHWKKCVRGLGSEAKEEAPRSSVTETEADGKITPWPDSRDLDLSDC
- assay text: CB-2 in vitro cAMP assay (HTRF)
- protocol conditions: mean where tested more than once
pEC50: −log10 of the molar value.
Reported values of pEC50 for individual entries

>  <chemical smiles>
Fc1cccc(CNc2ncnc3ccc(C(c4ccc(Cl)cc4)c4ccc(Cl)cc4)cc23)c1

>  <pEC50>
5.92

$$$$
>  <chemical smiles>
NC(=O)CCCOc1nc(NCc2ccc(C(F)(F)F)cc2)c2cc(C(c3ccc(Cl)cc3)c3ccc(Cl)cc3)ccc2n1

>  <pEC50>
6.07

$$$$
>  <chemical smiles>
O=C(O)c1ccc(CCN2CCC(Nc3ncnc4ccc(C(c5ccc(Cl)cc5)c5ccc(Cl)cc5)cc34)CC2)cc1

>  <pEC50>
6.00

$$$$

====

- system: UniProt P21554
- Sequence (P21554 whole entry): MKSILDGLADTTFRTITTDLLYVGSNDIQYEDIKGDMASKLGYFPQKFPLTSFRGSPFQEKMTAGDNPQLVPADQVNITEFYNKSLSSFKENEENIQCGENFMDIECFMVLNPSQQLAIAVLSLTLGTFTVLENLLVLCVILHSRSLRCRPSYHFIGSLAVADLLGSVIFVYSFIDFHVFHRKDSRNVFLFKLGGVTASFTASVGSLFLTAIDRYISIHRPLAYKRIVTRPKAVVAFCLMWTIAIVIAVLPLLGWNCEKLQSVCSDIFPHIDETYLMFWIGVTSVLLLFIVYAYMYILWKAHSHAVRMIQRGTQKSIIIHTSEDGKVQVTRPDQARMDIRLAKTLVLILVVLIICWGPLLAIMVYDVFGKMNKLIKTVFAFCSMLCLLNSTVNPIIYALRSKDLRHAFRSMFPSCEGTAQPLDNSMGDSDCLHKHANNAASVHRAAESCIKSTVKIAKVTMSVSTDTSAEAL
- assay text: CB-1 in vitro cAMP assay (HTRF)
- protocol conditions: mean where tested more than once
pEC50: −log10 of the molar value.
metric: pEC50

>  <chemical smiles>
CCOC(=O)COc1ccc(S(=O)(=O)N2CCC(Nc3ncnc4ccc(C(c5ccc(Cl)cc5)c5ccc(Cl)cc5)cc34)CC2)cc1

>  <metric>
pEC50

>  <recorded result>
8.05

$$$$
>  <chemical smiles>
N#CCCOCCOc1nc(NCc2cccc(C(F)(F)F)c2)c2cc(C(c3ccc(Cl)cc3)c3ccc(Cl)cc3)ccc2n1

>  <metric>
pEC50

>  <recorded result>
7.96

$$$$
>  <chemical smiles>
N#Cc1ccc(S(=O)(=O)N2CCC(Nc3ncnc4ccc(C(c5ccc(Cl)cc5)c5ccc(Cl)cc5)cc34)CC2)cc1

>  <metric>
pEC50

>  <recorded result>
7.92

$$$$
>  <chemical smiles>
CCOC(=O)CC(=O)N1CCC(Nc2ncnc3ccc(C(c4ccc(Cl)cc4)c4ccc(Cl)cc4)cc23)CC1

>  <metric>
pEC50

>  <recorded result>
7.60

$$$$
>  <chemical smiles>
O=C(NCCCOc1ccc(CCl)cc1)c1ccc(S(=O)(=O)N2CCC(Nc3ncnc4ccc(C(c5ccc(Cl)cc5)c5ccc(Cl)cc5)cc34)CC2)cc1

>  <metric>
pEC50

>  <recorded result>
6.35

$$$$
>  <chemical smiles>
OCC(CO)(CO)COc1nc(NCc2cccc(C(F)(F)F)c2)c2cc(C(c3ccc(Cl)cc3)c3ccc(Cl)cc3)ccc2n1

>  <metric>
pEC50

>  <recorded result>
7.68

$$$$

====

- system: Human CB2R (Cannabanoid receptor 2) (Homo sapiens (Human), UniProt P34972)
- assay text: CB-2 in vitro cAMP assay (HTRF)
- protocol conditions: mean where tested more than once
pEC50: −log10 of the molar value.
metric: pEC50

>  <molecule>
Clc1ccc(C(c2ccc(Cl)cc2)c2ccc3ncnc(NC4CCN(CCc5ccccc5)CC4)c3c2)cc1 [Compound #11]

>  <inequality operator>
<

>  <recorded result>
5.00

$$$$
>  <molecule>
COC(=O)c1cccc(N2CCC(Nc3ncnc4ccc(C(c5ccc(Cl)cc5)c5ccc(Cl)cc5)cc34)CC2)c1 [compound 97]

>  <inequality operator>
<

>  <recorded result>
5.00

$$$$
>  <molecule>
FC(F)(F)c1ccc(Nc2ncnc3ccc(C(c4ccc(Cl)cc4)c4nccs4)cc23)cc1 (centres unmarked) [Compound #144]

>  <inequality operator>
=

>  <recorded result>
5.56

$$$$
>  <molecule>
O=C(NC(CO)(CO)CO)c1ccc(N2CCC(Nc3ncnc4ccc(C(c5ccc(Cl)cc5)c5ccc(Cl)cc5)cc34)CC2)cc1 [compound 42]

>  <inequality operator>
=

>  <recorded result>
6.67

$$$$
>  <molecule>
OCC(CO)(CO)COc1nc(NCc2cccc(C(F)(F)F)c2)c2cc(C(c3ccc(Cl)cc3)c3ccc(Cl)cc3)ccc2n1 [Compound #54]

>  <inequality operator>
=

>  <recorded result>
5.35

$$$$
